TEST_NAME: Administration of 60 mg IR efletirizine gelatin capsule: influence of a meal
Format: in vivo, patients
CONDITION_LABEL: human, in vivo, oral, 60 mg, 60 mg gelatin capsule; after a standardized fatty meal
ENDPOINT: Cmax (ng/mL)
Numbers only, in ng/mL.

Report Cmax for O=C(O)COCCN1CCN(C(c2ccc(F)cc2)c2ccc(F)cc2)CC1 please.
855

* * *

TEST_NAME: Crossover trial: 10 mg IR solution plus 25 mg PR tablet J, fasting or after a meal, vs 15 mg IR solution twice
Format: in vivo, human volunteers
CONDITION_LABEL: human, plasma, oral, 15 mg, IR solution 15 mg × 2, 12-hour interval; first dose; read-out: tmax (1)
ENDPOINT: Tmax (min)
Answers are plain numbers, in min.

What does the data say about its Tmax? Entry: O=C(O)COCCN1CCN(C(c2ccc(F)cc2)c2ccc(F)cc2)CC1
36
